protocolDescription: chemical genetic growth profiling, strain panel (AID 1159580);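 note: tested at 20 µM; growth read once vehicle control cultures reached saturation at 30 °C; 1 = growth at the plate median or of vehicle wells; lower values mean less growth of the strain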
conditionInfo: S. cerevisiae deletion strains, growth OD, locus YMR307W, strain GAS1
Among all 5,500 compounds or so, about 2,000 (36%) were called active. Another 18% or so got no clear call; they are omitted. Cut-off read from the data, not from the text of the source: active = normalized growth mostly below about 0.91 (no sharp cut-off); inconclusive = no clear call, values can overlap the other calls; inactive = mostly above about 0.92. The list shows a part of the results.
Log the outcome using a class from true (1) = active, false (0) = inactive

Ask: Hi, sorry to bother you, what did the test record for C#C[C@]1(O)CCC2C3CCC4=CC(=O)CC[C@@H]4C3CC[C@@]21C (stereo partly drawn) ?
Result: false (0)

Ask: Thanks! And NNC(=O)c1ccncc1 ?
Result: false (0)

Ask: One more compound: CC1=CCC2C3(C)C1=CC(=O)OC3CC1C(C)(C)CC(O)C(O)C12C (stereo not drawn)
Result: false (0)

Ask: Can you check CCOP(=S)(OCC)Oc1nc(Cl)c(Cl)cc1Cl next?
Result: false (0)

Ask: Next up: CCC(C)C(NC)C(=O)O (stereo not drawn)
Result: false (0)

Ask: Likewise for CCOP(=S)(OCC)Oc1cc(C)nc(C(C)C)n1 ?
Result: false (0)

Ask: For N[C@@H](Cc1c[nH]c2ccccc12)C(=O)O then?
Result: false (0)

Ask: Also C#C[C@]1(OC(C)=O)CCC2C3CCC4=CC(=O)CC[C@@H]4C3CC[C@@]21C (stereo partly drawn) ?
Result: false (0)

Ask: What do we get for CC(=O)NCc1c(I)c(NC(C)=O)c(I)c(C(=O)O)c1I ?
Result: false (0)

Ask: Thanks! And C#C[C@]1(O)CCC2C3CCC4=C(CCC(=O)C4)C3CC[C@@]21C (stereo partly drawn) ?
Result: false (0)

Ask: Try this compound too: CC1C(=O)OC2C1CCC1(C)C=CC(=O)C3(C)OC213 (stereo not drawn)
Result: false (0)

Ask: Next entry: Cc1ccc(-c2cc(C(F)(F)F)nn2-c2ccc(S(N)(=O)=O)cc2)cc1
Result: false (0)

Ask: Let us now turn to CC1(C)CC[C@]2(C(=O)O)CC[C@]3(C)C(=CCC4[C@@]5(C)CC[C@@H](O)C(C)(C)C5CC[C@]43C)C2C1 (stereo partly drawn)
Result: false (0)

Ask: Now this one: Cc1cc(=O)[nH]c(-c2ccccn2)n1
Result: false (0)

Ask: Now this one: S=c1[nH]nc(SCCSc2n[nH]c(=S)s2)s1
Result: false (0)

Ask: Next: C=C/C(C)=C\CC1C(C)(O)CCC2C(C)(C)CCCC21C (stereo not drawn)
Result: true (1)

Ask: Then CC(=O)O[C@@H]1CC[C@@]2(C)C(CC[C@]3(C)C2CC=C2C4CC(C)(C)CC[C@]4(C(=O)O)CC[C@]23C)C1(C)C (stereo partly drawn) ?
Result: false (0)

Ask: Can you handle NC(N)=[N+]1CCc2ccccc2C1 next?
Result: false (0)

Ask: Another compound to look at: Cc1noc(C)c1-c1nc(-c2cc(C(F)(F)F)cc(C(F)(F)F)c2)no1
Result: false (0)

Ask: Try CC(C)CC(N(C)C)C1(c2ccc(Cl)cc2)CCC1 (stereo not drawn) next.
Result: false (0)

Ask: Same read-out for C[C@H]1[C@H](C)CC[C@]2(CO)CC[C@]3(C)C(=CCC4[C@@]5(C)CC[C@H](O)C(C)(C)C5CC[C@]43C)[C@H]12 (stereo partly drawn) ?
Result: false (0)

Ask: Param item: NO
Result: false (0)

Ask: What about this compound? NCc1cc(=O)[nH]o1
Result: false (0)

Ask: Do the same for C/C=C(/C)C(=O)O[C@@H]1[C@H](OC(C)=O)[C@@]2(CO)C(CC1(C)C)C1=CCC3[C@@]4(C)CC[C@H](O[C@@H]5O[C@H](C(=O)O)[C@@H](O[C@@H]6O[C@H](CO)[C@@H](O)[C@H](O)[C@H]6O)[C@H](O)[C@H]5O[C@@H]5O[C@H](CO)[C@@H](O)[C@H](O)[C@H]5O)[C@](C)(CO)C4CC[C@@]3(C)[C@]1(C)C[C@H]2O (stereo partly drawn) please
Result: false (0)

Ask: Subsequent entry: CC1(C)CC[C@]2(C)CC[C@]3(C)C(=CCC4[C@@]5(C)CC[C@H](O)C(C)(C)C5CC[C@]43C)C2C1 (stereo partly drawn)
Result: false (0)

Ask: Now give it for N=C(N)SCCN too.
Result: false (0)

Ask: Another compound to look at: CC(=O)O[C@H]1CC[C@@]2(C)C(CC[C@]3(C)C2CC=C2C4CC(C)(C)CC[C@]4(C)CC[C@]23C)C1(C)C (stereo partly drawn)
Result: false (0)

Ask: Same read-out for N=C(N)c1ccc(OCCCCCOc2ccc(C(=N)N)cc2)cc1 ?
Result: true (1)

Ask: Also check Cn1cnc2c(NCc3ccccc3)nc(NCCO)nc21
Result: false (0)

Ask: Can you check NCCC(=O)N[C@@H](Cc1cnc[nH]1)C(=O)O next?
Result: false (0)

Ask: Try the compound C[C@@H]1CC[C@]2(C(=O)O)CC[C@]3(C)C(=CCC4[C@@]5(C)CC[C@H](O)C(C)(C)C5CC[C@]43C)C2[C@H]1C (stereo partly drawn)
Result: false (0)

Ask: Note, next up: C[C@@H]1OC(O[C@H]2[C@H](OC(=O)[C@]34CCC(C)(C)CC3C3=CCC5[C@@]6(C)CC[C@H](OC7O[C@@H](C)[C@H](O[C@@H]8OC[C@@H](O)[C@H](O)[C@H]8O)[C@@H](O)[C@H]7O)C(C)(C)C6CC[C@@]5(C)[C@]3(C)CC4O)OC[C@H](O)[C@H]2O)[C@H](O)[C@H](O)[C@H]1O[C@@H]1O[C@H](CO)[C@@H](O)[C@H](O)[C@H]1O (stereo partly drawn)
Result: true (1)

Ask: NC(N)=NN=Cc1c(Cl)cccc1Cl ?
Result: false (0)

Ask: Entry to check: CC(N)C1CCC(C(=O)Nc2ccncc2)CC1 (stereo not drawn)
Result: false (0)

Ask: What do you get for CNC(=O)O/N=C\C(C)(C)SC ?
Result: false (0)

Ask: Check Oc1ccc2c3c1O[C@H]1[C@@H](O)CC[C@@]4(O)C(C2)N(CC2CCC2)CCC314 (stereo partly drawn) too.
Result: false (0)

Ask: Input C#C[C@]1(O)CCC2C3CCC4=CC(=O)CC[C@@H]4C3CC[C@@]21CC (stereo partly drawn)
Result: false (0)

Ask: Moving on to COC(=O)C[C@H]1C(C)(C)C2(O)OC34CC2C(=O)[C@]1(C)C3CC[C@]1(C)C4=CC(=O)O[C@H]1c1ccoc1 (stereo partly drawn)
Result: false (0)
